Molecular target: human F508del-CFTR (Homo sapiens, UniProt P13569, DEL508-508)
Sequence (P13569 with tags, fused parts or gaps DEL508-508): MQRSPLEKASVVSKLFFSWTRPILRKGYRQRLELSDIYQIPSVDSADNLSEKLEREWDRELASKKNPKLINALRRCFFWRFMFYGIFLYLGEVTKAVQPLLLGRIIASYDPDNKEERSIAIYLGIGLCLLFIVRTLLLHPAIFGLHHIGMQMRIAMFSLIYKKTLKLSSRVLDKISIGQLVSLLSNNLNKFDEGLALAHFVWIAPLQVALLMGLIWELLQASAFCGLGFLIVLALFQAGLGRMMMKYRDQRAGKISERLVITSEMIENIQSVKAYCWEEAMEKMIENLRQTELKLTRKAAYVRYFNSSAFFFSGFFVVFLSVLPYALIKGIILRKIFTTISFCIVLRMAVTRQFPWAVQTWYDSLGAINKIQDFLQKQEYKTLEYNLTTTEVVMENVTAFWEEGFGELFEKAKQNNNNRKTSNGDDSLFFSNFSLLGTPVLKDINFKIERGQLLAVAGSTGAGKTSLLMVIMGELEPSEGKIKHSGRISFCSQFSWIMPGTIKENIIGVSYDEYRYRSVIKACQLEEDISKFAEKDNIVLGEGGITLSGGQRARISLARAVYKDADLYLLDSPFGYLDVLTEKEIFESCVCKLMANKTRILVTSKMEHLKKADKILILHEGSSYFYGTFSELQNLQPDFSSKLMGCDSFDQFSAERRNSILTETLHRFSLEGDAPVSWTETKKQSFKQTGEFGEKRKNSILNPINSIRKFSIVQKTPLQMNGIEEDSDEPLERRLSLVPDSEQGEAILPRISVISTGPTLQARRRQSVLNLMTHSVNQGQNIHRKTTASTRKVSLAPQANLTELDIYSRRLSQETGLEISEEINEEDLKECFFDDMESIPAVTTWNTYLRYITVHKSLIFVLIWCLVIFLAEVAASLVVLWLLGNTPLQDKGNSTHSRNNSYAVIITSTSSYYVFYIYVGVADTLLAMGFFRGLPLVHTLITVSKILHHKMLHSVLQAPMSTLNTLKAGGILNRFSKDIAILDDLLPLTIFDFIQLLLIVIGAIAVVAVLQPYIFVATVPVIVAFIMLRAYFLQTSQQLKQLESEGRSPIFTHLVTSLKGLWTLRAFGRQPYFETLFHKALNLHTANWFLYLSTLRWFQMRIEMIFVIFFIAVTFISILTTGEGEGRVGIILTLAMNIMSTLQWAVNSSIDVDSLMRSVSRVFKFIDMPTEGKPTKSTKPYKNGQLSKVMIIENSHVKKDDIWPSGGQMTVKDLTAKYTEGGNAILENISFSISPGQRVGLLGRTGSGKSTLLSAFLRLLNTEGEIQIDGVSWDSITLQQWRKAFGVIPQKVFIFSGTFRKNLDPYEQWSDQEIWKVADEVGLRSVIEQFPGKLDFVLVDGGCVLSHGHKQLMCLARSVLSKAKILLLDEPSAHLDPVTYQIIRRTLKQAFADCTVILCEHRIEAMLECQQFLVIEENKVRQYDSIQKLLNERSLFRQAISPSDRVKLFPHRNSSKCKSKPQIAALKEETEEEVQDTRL
Test: F508del-CFTR cell surface expression (corrector activity), DiscoveRx ß-galactosidase complementation chemiluminescence assay in recombinant U2OS cell line
Conditions: EC50, F508del-CFTR cell surface expression, U2OS cells, 16h compound incubation; geomean values
Label Y when EC50 < 200 nM; otherwise N.

INSERT INTO measurements (compound_string, cat) VALUES
  ('Cc1cc(CCNC(=O)[C@@H]2CC(=O)N(C)[C@@H](CC(C)C)C(=O)N3CCN(c4ccccc4)C[C@@H]3C(=O)N[C@H](Cc3ccccc3)COc3cnc4ccccc4c3C(=O)N2)on1', 'Y'),
  ('CC(C)C[C@H]1C(=O)N2CCCC[C@@H]2C(=O)N[C@H](Cc2ccccc2)COc2ccc3ncc(F)cc3c2C(=O)N[C@H](C(=O)NCCc2cc(C3CC3)on2)CC(=O)N1C', 'Y'),
  ('CC(C)C[C@H]1C(=O)N(CCCc2ccccc2)CC(=O)N[C@H](Cc2ccccc2)COc2ccc3ccccc3c2C(=O)N[C@H](C(=O)NCCc2ccc3c(c2)OCO3)CC(=O)N1C', 'Y'),
  ('Cc1cc(CCNC(=O)[C@@H]2CC(=O)N(C)[C@@H](CC(C)C)C(=O)N3CCN(CC(C)C)C[C@@H]3C(=O)N[C@H](Cc3ccccc3)COc3ccc4nc(C)oc4c3C(=O)N2)on1', 'N'),
  ('CC(C)C[C@H]1C(=O)N2CCCC[C@@H]2C(=O)N[C@H](Cc2ccccc2)COc2ccc3ncc(F)cc3c2C(=O)N[C@H](C(=O)NCCc2nc(C3CC3)no2)CC(=O)N1C', 'Y'),
  ('COc1cccc(CCNC(=O)[C@@H]2CC(=O)N(C)[C@@H](CC(C)C)C(=O)N3CCN(C(=O)OC4CCOCC4)C[C@@H]3C(=O)N[C@H](Cc3ccccc3)COc3ccc4ccccc4c3C(=O)N2)c1', 'N'),
  ('COc1nc(C)cc2c1C(=O)N[C@H](C(=O)NCCc1cc(C3CC3)no1)CC(=O)N(C)[C@@H](CC(C)C)C(=O)N1CCCC[C@@H]1C(=O)N[C@H](Cc1ccccc1)CO2', 'N'),
  ('CCN1C(=O)C[C@@H](C(=O)NCCc2nc(C3CC3)no2)NC(=O)c2c(cnc3ccccc23)OC[C@@H](Cc2ccccc2)NC(=O)[C@H]2CCCCN2C(=O)[C@@H]1CC(C)C', 'Y'),
  ('CC(C)C[C@H]1C(=O)N2CCCC[C@@H]2C(=O)N[C@H](Cc2ccccc2)COc2ccc3ncccc3c2C(=O)N[C@H](C(=O)NCCc2ccc(-n3nccn3)cc2)CC(=O)N1C', 'N'),
  ('COc1cccc(CCNC(=O)[C@@H]2CC(=O)N(C)[C@@H](CC(C)C)C(=O)N3CCCC[C@@H]3C(=O)N[C@H](Cc3ccccc3)COc3c[n+]([O-])c4ccccc4c3C(=O)N2)c1', 'N');

====

Listed next: entries and their corresponding Emax.
Target: human F508del-CFTR (Homo sapiens, UniProt P13569, DEL508-508)
Test: F508del-CFTR cell surface expression (corrector activity), DiscoveRx ß-galactosidase complementation chemiluminescence assay in recombinant U2OS cell line;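 note: U2OS cells co-expressing ProLink-tagged F508del-CFTR and a membrane-anchored enzyme acceptor, where more surface CFTR restores β-galactosidase activity measured by chemiluminescence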
Settings: U2OS, in relation to the Emax of the corrector lumacaftor (=100%); U2OS cell line, 16h compound incubation; arithmetic mean values
quantity measured: Emax (%)

INSERT INTO assay_data (molecule, quantity_measured, result_value) VALUES
  ('CC(C)C[C@H]1C(=O)N(CCC2CCC3(CCC3)O2)CC(=O)N[C@H](Cc2ccccc2)COc2ccc3ccccc3c2C(=O)N[C@H](C(=O)NCCc2ccc3c(c2)OCO3)CC(=O)N1C (some centres unmarked)', 'Emax', 240),
  ('COCCN1CCN2C(=O)[C@H](CC(C)C)N(C)C(=O)C[C@@H](C(=O)NCCc3cccc(OC)c3)NC(=O)c3c(ccc4ccccc34)OC[C@@H](Cc3ccccc3)NC(=O)[C@H]2C1', 'Emax', 321),
  ('CC(C)C[C@H]1C(=O)N2CCOC[C@@H]2C(=O)N[C@H](Cc2ccccc2)COc2ccc3ccccc3c2C(=O)N[C@H](C(=O)NCCc2ccc(-n3nccn3)cc2)CC(=O)N1C', 'Emax', 215),
  ('CC(C)C[C@H]1C(=O)N2CCOC[C@@H]2C(=O)N[C@H](Cc2ccccc2)COc2cnc3ccccc3c2C(=O)N[C@H](C(=O)NCCc2cccc(F)c2)CC(=O)N1C', 'Emax', 169),
  ('COc1cccc(CCNC(=O)[C@@H]2CC(=O)N(C)[C@@H](CC(C)C)C(=O)N3CCN(C4CCC4)C[C@@H]3C(=O)N[C@H](Cc3ccccc3)COc3ccc4ccccc4c3C(=O)N2)c1', 'Emax', 307),
  ('CC(C)C[C@H]1C(=O)N(C)C2(CC2)C(=O)N[C@H](Cc2ccccc2)COc2cnc3ccc(F)cc3c2C(=O)N[C@H](C(=O)NCCc2nc(C3CC3)no2)CC(=O)N1C', 'Emax', 318),
  ('COc1cccc(CCNC(=O)[C@@H]2CC(=O)N(C)[C@@H](CC(C)C)C(=O)N(C[C@@H]3CCCCO3)CC(=O)N[C@H](Cc3ccccc3)COc3cccc(OC)c3C(=O)N2)c1', 'Emax', 111),
  ('COc1cc2c(cc1OC)C(=O)N[C@H](C(=O)NCCc1ccccc1F)CC(=O)N(C)[C@@H](CC(C)C)C(=O)N(C)CC(=O)N[C@H](Cc1ccccc1)CO2', 'Emax', 106),
  ('CC(C)C[C@H]1C(=O)N2CCOC[C@@H]2C(=O)N[C@H](Cc2ccccc2)COc2cnc3ccccc3c2C(=O)N[C@H](C(=O)NCCc2ccc3c(c2)OCC3)CC(=O)N1C', 'Emax', 373),
  ('COc1cccc2c1C(=O)N[C@H](C(=O)NCCc1ccc3c(c1)COC3)CC(=O)N(C)[C@@H](CC(C)C)C(=O)N(CCC1CCCCC1)CC(=O)N[C@H](Cc1ccccc1)CO2 (racemic)', 'Emax', 153),
  ('Cc1cc(C)cc(-c2noc(CCNC(=O)[C@@H]3CC(=O)N(C)[C@@H](CC(C)C)C(=O)N4CCCC[C@@H]4C(=O)N[C@H](Cc4ccccc4)COc4cnc5ccccc5c4C(=O)N3)n2)c1', 'Emax', 157),
  ('CC(C)C[C@H]1C(=O)N2CCCC[C@@H]2C(=O)N[C@H](Cc2ccccc2)COc2cnc3ccccc3c2C(=O)N[C@H](C(=O)NCCc2cnn(C3CC3)c2)CC(=O)N1C', 'Emax', 347),
  ('CC(C)C[C@H]1C(=O)N2CCOC[C@@H]2C(=O)N[C@H](Cc2ccccc2)COc2ccc3ccccc3c2C(=O)N[C@H](C(=O)NCCc2nc(-c3ccccc3)no2)CC(=O)N1C', 'Emax', 262),
  ('COc1cc(CCNC(=O)[C@@H]2CC(=O)N(C)[C@@H](CC(C)C)C(=O)N(CCC3CCCCC3)CC(=O)N[C@H](Cc3ccccc3)COc3cccc(OC)c3C(=O)N2)ccn1', 'Emax', 169),
  ('COc1cccc(CCNC(=O)[C@@H]2CC(=O)N(C)[C@@H](CC(C)C)C(=O)N(C)CC(=O)N[C@H](Cc3ccccc3)COc3ccc(C)cc3C(=O)N2)c1', 'Emax', 103),
  ('COc1cccc2c1C(=O)N[C@H](C(=O)NCCc1ccc3c(c1)OCCCO3)CC(=O)N(C)[C@@H](CC(C)C)C(=O)N(CCC1CCCCC1)CC(=O)N[C@H](Cc1ccccc1)CO2 (racemic)', 'Emax', 184),
  ('CC(C)C[C@H]1C(=O)N(C)C2(CC2)C(=O)N[C@H](Cc2ccccc2)COc2cnc3ccccc3c2C(=O)N[C@H](C(=O)NCCc2noc(C3CC3)n2)CC(=O)N1C', 'Emax', 250),
  ('CCc1ccc(CCNC(=O)[C@@H]2CC(=O)N(C)[C@@H](CC(C)C)C(=O)N3CCOC[C@@H]3C(=O)N[C@H](Cc3ccccc3)COc3cnc4ccccc4c3C(=O)N2)cc1', 'Emax', 247),
  ('COc1cccc2c1C(=O)N[C@H](C(=O)NCCc1ccc3ccoc3c1)CC(=O)N(C)[C@@H](CC(C)C)C(=O)N(CCC1CCCCC1)CC(=O)N[C@H](Cc1ccccc1)CO2 (racemic)', 'Emax', 185),
  ('CC(C)C[C@H]1C(=O)N(C)C2(CC2)C(=O)N[C@H](Cc2ccccc2)COc2cnc3ccc(F)cc3c2C(=O)N[C@H](C(=O)NCCc2noc(C3CC3)n2)CC(=O)N1C', 'Emax', 327);
